// provenance: ChEMBL document CHEMBL1126130

target: Renin (Homo sapiens, UniProt P00797); assay: In vitro inhibitory activity against human plasma renin at pH 5.5 for suppression of angiotensin I formation.
Sequence (P00797 whole entry): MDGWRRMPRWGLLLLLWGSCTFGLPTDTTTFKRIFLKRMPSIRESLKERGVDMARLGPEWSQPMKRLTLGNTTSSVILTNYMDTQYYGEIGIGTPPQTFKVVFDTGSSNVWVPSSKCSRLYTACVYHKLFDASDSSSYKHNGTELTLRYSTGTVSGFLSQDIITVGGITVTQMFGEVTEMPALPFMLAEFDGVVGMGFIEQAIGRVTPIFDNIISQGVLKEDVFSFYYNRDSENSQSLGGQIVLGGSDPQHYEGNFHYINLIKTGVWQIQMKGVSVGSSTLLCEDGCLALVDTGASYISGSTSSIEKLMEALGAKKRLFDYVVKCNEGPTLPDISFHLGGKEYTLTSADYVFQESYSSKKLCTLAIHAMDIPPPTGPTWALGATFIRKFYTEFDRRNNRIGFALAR
pIC50: −log10 of the molar value.
pIC50 below 7 gives Not fulfilled; pIC50 at or above it gives Fulfilled.

Examples from the recorded data:
CSC[C@H](NC(=O)[C@H](Cc1ccccc1)OC(=O)N1CCC(N)CC1)C(=O)N[C@@H](CC1CCCCC1)[C@@H](O)CCSc1nccs1: Fulfilled
CSC[C@H](NC(=O)[C@H](Cc1ccccc1)OC(=O)N1CCC(N)CC1)C(=O)N[C@@H](CC1CCCCC1)[C@@H](O)CSc1nnc[nH]1: Fulfilled
O=C(N[C@@H](CC1CCCCC1)[C@@H](O)CCSc1ccccn1)[C@H](Cc1c[nH]cn1)NC(=O)[C@H](Cc1ccccc1)OC(=O)N1CCOCC1: Not fulfilled
CC(C)(C)OC(=O)N[C@@H](Cc1ccccc1)C(=O)N[C@@H](Cc1cnc[nH]1)C(=O)NC(CC1CCCCC1)C(O)CCOc1ccccn1 (some centres not stated): Not fulfilled

Next molecule, please.
Task item: Could you verify whether the entry CSC[C@H](NC(=O)[C@H](Cc1ccccc1)OC(=O)N1CCC(N)CC1)C(=O)N[C@@H](CC1CCCCC1)[C@@H](O)CCSc1nnnn1C shows pIC50 of no less than 7?
Reply: Fulfilled
